# TEST METHOD NOTES: yeast display, Sf9 membrane polyspecificity reagent, FACS + sequencing; frameworks hold sequencing errors
TEST READOUT: polyreactivity (PSR sort gate)

1. QVQLVESGGGLVQAGGSLRLSCAASGITFVFYTMGWYRQAPGKERELVAAITSSGVRTSYADSVKGRFTISRDNAKNTVYLQMNSLKPEDTAVYYCAAKPTYVHKPGYNYWGQGTQVTVSS: high polyreactivity
2. QVQLVESGGGLVQAGGSLRLSCAASGSTFYYYALGWYRQAPGKERELVATISWSGDSTYADSVKGRFTISRDNAKNTVYLQMNSLKPEDTAVYYCATSGDWWGFRYDYWGQGTQVTVSS: low polyreactivity
3. QVQLVESGGGLVQAGGSLRLSCAASGSTSVYYAMGWYRQTPGKERELVAAINWNGGRTYYADSVKGRFTISRDNAKNTVYLQMNSLKPEDTAVYYCATDSGDGEGDYWGQGTQVTVSS: low polyreactivity
4. QVQLVESGGGLVQAGGSLRLSCAASGYILYPYAMGWYRQAPGKERELVAAIRQRGGSTYYADSVKGRFTISRDNAKNTVYLQMNSLKPEDTAVYYCAAYLSPKRALTRGYGYWGQGTQVTVSS: high polyreactivity
5. QVQLVESGGGLVQAGGSLRLSCAASGLILSAYAMGWYRQAPGKERELVAAISKRGGSTYYADSVKGRFTISRDNAKNTVYSQMNSLKPEDTAVYYCAADYTKHYWGQGTQVTVSS: high polyreactivity
